Reference for the values: ChEMBL document CHEMBL4706484

target: Butyrylcholinesterase (Rattus norvegicus, UniProt Q9JKC1); experiment: Inhibition of rat serum BChE using acetylthiocholine iodide as substrate measured after 15 mins by Ellman's method
Sequence (Q9JKC1 whole entry): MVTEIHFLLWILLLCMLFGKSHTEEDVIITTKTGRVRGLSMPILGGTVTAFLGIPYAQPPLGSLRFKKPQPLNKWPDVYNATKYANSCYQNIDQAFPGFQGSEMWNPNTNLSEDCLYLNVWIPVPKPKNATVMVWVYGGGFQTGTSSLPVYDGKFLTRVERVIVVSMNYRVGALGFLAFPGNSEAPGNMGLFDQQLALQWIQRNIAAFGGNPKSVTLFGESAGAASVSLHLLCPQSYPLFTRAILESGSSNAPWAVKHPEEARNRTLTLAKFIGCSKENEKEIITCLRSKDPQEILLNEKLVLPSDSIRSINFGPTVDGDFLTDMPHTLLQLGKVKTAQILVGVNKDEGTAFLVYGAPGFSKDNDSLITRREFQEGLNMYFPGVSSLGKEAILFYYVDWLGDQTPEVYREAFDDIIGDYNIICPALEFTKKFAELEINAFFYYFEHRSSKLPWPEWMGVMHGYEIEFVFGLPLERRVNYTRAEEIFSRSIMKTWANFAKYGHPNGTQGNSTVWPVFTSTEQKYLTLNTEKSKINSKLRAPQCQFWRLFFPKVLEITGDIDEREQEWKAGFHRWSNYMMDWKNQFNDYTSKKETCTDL

compound	censoring-operator	IC50, µM
CCN(C)C(=O)Oc1ccc(-c2cc(=O)c3c(O)cc(OC(=O)N(C)CC)cc3o2)cc1	=	12.1
CON(C)C(=O)Oc1ccc(-c2cc(=O)c3c(OC(=O)N(C)OC)cc(OC(=O)N(C)OC)cc3o2)cc1	=	18.2
O=c1cc(-c2ccc(O)cc2)oc2cc(O)cc(O)c12 [APIGENIN]	>	500
O=C(Oc1ccc(-c2cc(=O)c3c(O)cc(OC(=O)N(c4ccccc4)c4ccccc4)cc3o2)cc1)N(c1ccccc1)c1ccccc1	=	37.6

----------
test: Cytotoxicity against human L02 cells assessed as cell viability at 50 uM measured after 72 hrs by MTT assay relative to control; assay type: cell-based; settings: read-out: Activity
measure: viability at 72 h, 50 µM (%)

compound	measure	reading
CCN(C)C(=O)Oc1ccc(-c2cc(=O)c3c(O)cc(OC(=O)N(C)CC)cc3o2)cc1	viability at 72 h, 50 µM	59.7
CCN(C)C(=O)Oc1ccc(-c2cc(=O)c3c(OC(=O)N(C)CC)cc(OC(=O)N(C)CC)cc3o2)cc1	viability at 72 h, 50 µM	69.2

----------
target: Amyloid-beta precursor protein (Homo sapiens) (UniProt P05067); assay: Inhibition of self-induced amyloid beta (1 to 42) (unknown origin) aggregation at 25 uM by ThT fluorescence assay relative to control
Sequence (P05067 whole entry): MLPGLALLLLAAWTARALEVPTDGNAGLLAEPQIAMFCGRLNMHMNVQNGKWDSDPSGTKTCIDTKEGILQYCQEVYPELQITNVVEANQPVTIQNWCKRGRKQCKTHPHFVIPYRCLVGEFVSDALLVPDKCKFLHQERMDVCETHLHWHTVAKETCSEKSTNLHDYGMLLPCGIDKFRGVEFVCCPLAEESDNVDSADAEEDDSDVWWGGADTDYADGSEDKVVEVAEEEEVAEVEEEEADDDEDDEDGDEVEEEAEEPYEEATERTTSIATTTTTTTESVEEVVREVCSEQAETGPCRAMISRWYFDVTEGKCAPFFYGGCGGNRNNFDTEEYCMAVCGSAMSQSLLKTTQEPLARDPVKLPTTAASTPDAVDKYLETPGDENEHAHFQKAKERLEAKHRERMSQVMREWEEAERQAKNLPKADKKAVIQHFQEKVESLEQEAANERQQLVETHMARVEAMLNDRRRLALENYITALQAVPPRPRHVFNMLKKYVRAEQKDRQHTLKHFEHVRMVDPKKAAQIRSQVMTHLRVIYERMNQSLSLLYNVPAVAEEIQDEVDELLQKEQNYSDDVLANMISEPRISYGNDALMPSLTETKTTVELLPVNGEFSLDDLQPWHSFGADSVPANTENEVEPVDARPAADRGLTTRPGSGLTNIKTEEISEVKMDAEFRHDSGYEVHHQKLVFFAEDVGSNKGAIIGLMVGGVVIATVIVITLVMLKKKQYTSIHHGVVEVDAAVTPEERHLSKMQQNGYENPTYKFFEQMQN

compound	inhibition
O=C(Oc1ccc(-c2cc(=O)c3c(OC(=O)N4CCOCC4)cc(OC(=O)N4CCOCC4)cc3o2)cc1)N1CCOCC1	31.2%
CN(C)C(=O)Oc1ccc(-c2cc(=O)c3c(O)cc(OC(=O)N(C)C)cc3o2)cc1	79.2%
O=C(Oc1ccc(-c2cc(=O)c3c(O)cc(OC(=O)N(c4ccccc4)c4ccccc4)cc3o2)cc1)N(c1ccccc1)c1ccccc1	70.9%

----------
molecular target: Butyrylcholinesterase (Rattus norvegicus, UniProt Q9JKC1); assay: Inhibition of rat serum BChE using acetylthiocholine iodide as substrate measured after 15 mins by Ellman's method
Recorded IC50 values for a group of compounds are listed next.
measure: IC50 (µM)

compound	test-target	measure	unit-descriptor	reading
O=C(Oc1ccc(-c2cc(=O)c3c(OC(=O)N4CCOCC4)cc(OC(=O)N4CCOCC4)cc3o2)cc1)N1CCOCC1	Butyrylcholinesterase (Rattus norvegicus, UniProt Q9JKC1)	IC50	µM	23.8
CCN(CC)C(=O)Oc1ccc(-c2cc(=O)c3c(O)cc(OC(=O)N(CC)CC)cc3o2)cc1	Butyrylcholinesterase (Rattus norvegicus, UniProt Q9JKC1)	IC50	µM	16.4
O=C(Oc1ccc(-c2cc(=O)c3c(O)cc(OC(=O)N4CCOCC4)cc3o2)cc1)N1CCOCC1	Butyrylcholinesterase (Rattus norvegicus, UniProt Q9JKC1)	IC50	µM	18.6
O=C(Oc1ccc(-c2cc(=O)c3c(O)cc(OC(=O)N4CCCC4)cc3o2)cc1)N1CCCC1	Butyrylcholinesterase (Rattus norvegicus, UniProt Q9JKC1)	IC50	µM	26.9
CN(C)C(=O)Oc1ccc(-c2cc(=O)c3c(O)cc(OC(=O)N(C)C)cc3o2)cc1	Butyrylcholinesterase (Rattus norvegicus, UniProt Q9JKC1)	IC50	µM	23.7
CCN(C)C(=O)Oc1ccc(-c2cc(=O)c3c(OC(=O)N(C)CC)cc(OC(=O)N(C)CC)cc3o2)cc1	Butyrylcholinesterase (Rattus norvegicus, UniProt Q9JKC1)	IC50	µM	16.2
CN(C)C(=O)Oc1ccc(-c2cc(=O)c3c(OC(=O)N(C)C)cc(OC(=O)N(C)C)cc3o2)cc1	Butyrylcholinesterase (Rattus norvegicus, UniProt Q9JKC1)	IC50	µM	23.1
CON(C)C(=O)Oc1ccc(-c2cc(=O)c3c(O)cc(OC(=O)N(C)OC)cc3o2)cc1	Butyrylcholinesterase (Rattus norvegicus, UniProt Q9JKC1)	IC50	µM	17.2
